Where do the numbers come from? From patent US20240199692A1.

Target: MMP2 (Homo sapiens, UniProt P08253)
Sequence (P08253 110-660): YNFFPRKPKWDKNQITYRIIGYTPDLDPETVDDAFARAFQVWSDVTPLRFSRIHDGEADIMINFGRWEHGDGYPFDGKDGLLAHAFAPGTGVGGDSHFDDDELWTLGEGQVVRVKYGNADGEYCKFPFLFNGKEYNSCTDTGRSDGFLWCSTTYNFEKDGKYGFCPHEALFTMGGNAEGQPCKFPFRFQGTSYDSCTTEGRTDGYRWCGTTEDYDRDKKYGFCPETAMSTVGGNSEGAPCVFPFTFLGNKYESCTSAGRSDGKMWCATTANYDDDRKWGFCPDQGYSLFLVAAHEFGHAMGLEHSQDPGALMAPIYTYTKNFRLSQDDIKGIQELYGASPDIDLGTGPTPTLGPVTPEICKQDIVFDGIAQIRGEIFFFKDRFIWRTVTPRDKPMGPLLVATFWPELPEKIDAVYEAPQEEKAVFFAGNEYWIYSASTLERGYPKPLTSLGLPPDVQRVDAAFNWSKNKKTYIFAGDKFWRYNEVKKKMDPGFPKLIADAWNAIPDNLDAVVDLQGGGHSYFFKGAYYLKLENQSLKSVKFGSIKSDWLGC
Assay: Inhibitory effects on human MMP2 (Method 1), enzyme assay with MOCAc-Pro-Leu-Gly-Leu-A2pr(Dnp)-Ala-Arg-NH2 substrate, 96-well
Assay type: biochemical
Conditions: Test Example No. 1-1 (Method 1, 96-well microplate); read-out: Human MMP2, IC50
*1 amine or outer side, *2 acyl side, *3 side chain or, on linkers, in order; H or OH if unused. Where a SMILES comes first, the peptide text is derived from it. [ ]: non-standard residue; d: D form. The star is where a group is joined. Benzoyl(4-O-C6H4-4-CONHMe) = CNC(=O)c1ccc(Oc2ccc(C(=O)*)cc2)cc1; Benzoyl(4-OPh(4-CONH2)) = NC(=O)c1ccc(Oc2ccc(C(=O)*)cc2)cc1; X16 = O=C(O)CCNC(=O)c1ccc(Oc2ccc(C(=O)*)cc2)cc1; X8 = CCCOc1ccc(C(=O)Nc2ccc(S(=O)(=O)*)cc2)cc1; Benzoyl(4-OPh) = O=C(c1ccc(Oc2ccccc2)cc1)*; d(γGlu) = O=C(O)[C@@H](CCC(=O)[*:2])N[*:1]; NMeI = CC[C@H](C)[C@H](NC)C(=O)O; NMeE = CN[C@@H](CCC(=O)O)C(=O)O; NMeL = CN[C@@H](CC(C)C)C(=O)O; NMeV = CN[C@H](C(=O)O)C(C)C; β3hP = O=C(O)C[C@@H]1CCCN1; Orn = NCCC[C@H](N)C(=O)O; Dab = NCC[C@H](N)C(=O)O; X18 = NC(=O)[C@H](N)CN*; Ahx = NCCCCCC(=O)O; Ava = NCCCCC(=O)O; GABA = NCCCC(=O)O; Sar = CNCC(=O)O
Assay metric: pIC50
Numbers only, as −log10 of the molar value.

{"Compound": "CC[C@H](C)[C@@H](C(=O)N1CCC[C@H]1CC(N)=O)N(C)C(=O)[C@H](CC(C)C)NC(=O)[C@H](CCN)NC(=O)[C@H](CC(=O)O)NC(=O)[C@H](CCCNC(=N)N)NC(=O)CCCCCNC(=O)c1ccc(Oc2ccc(C(=O)NC)cc2)cc1 [Compound 191] ({Benzoyl(4-O-C6H4-4-CONHMe)-Ahx}-RD[Dab]L[NMeI][β3hP]-NH2; N-terminus assumed)", "pIC50": 8.57}

Provide each entry's pIC50 from the list below.
1. CC(C)C[C@H](NC(=O)[C@H](CCN)NC(=O)[C@H](CC(=O)O)NC(=O)[C@H](CCC(N)=O)NC(=O)[C@@H](N)CCCNC(=O)c1ccc(Oc2ccc(C(N)=O)cc2)cc1)C(=O)N(C)[C@H](C(=O)NC[C@@H](N)C(N)=O)C(C)C [Compound 536] (H-[Orn](Benzoyl(4-OPh(4-CONH2)))QD[Dab]L[NMeV]-X18)
2. CC[C@H](C)[C@@H](C(=O)N1CCC[C@H]1C(N)=O)N(C)C(=O)[C@H](CC(C)C)NC(=O)[C@H](CCN)NC(=O)[C@H](CC(=O)O)NC(=O)[C@H](CC(C)C)N(C)C(=O)CCCNC(=O)c1ccc(Oc2ccccc2)cc1 [Compound 136] ({Benzoyl(4-OPh)-GABA}-[NMeL]D[Dab]L[NMeI]P-NH2; N-terminus assumed)
3. CC(C)C[C@H](NC(=O)[C@H](CCN)NC(=O)[C@H](CC(=O)O)NC(=O)[C@H](CC(N)=O)NC(=O)CCCCNC(=O)c1ccc(Oc2ccc(C(=O)NCCC(=O)O)cc2)cc1)C(=O)N(C)[C@@H](CCC(=O)O)C(=O)N1CCC[C@H]1CC(N)=O [Compound 183] ({X16-Ava}-ND[Dab]L[NMeE][β3hP]-NH2; N-terminus assumed)
4. CC[C@H](C)[C@@H](C(=O)NCCCCC(N)=O)N(C)C(=O)[C@H](CC(C)C)NC(=O)[C@@H]1C[C@H](N)CN1C(=O)CC[C@@H](NS(=O)(=O)c1ccc(NC(=O)c2ccc(C(N)=O)cc2)cc1)C(=O)O
5. CC[C@H](C)[C@@H](C(=O)N1CCC[C@H]1C(N)=O)N(C)C(=O)[C@H](CC(C)C)NC(=O)[C@H](C)NC(=O)[C@H](CC(=O)O)NC(=O)CN(C)C(=O)CCCNC(=O)c1ccc(Oc2ccccc2)cc1 [Compound 115] ({Benzoyl(4-OPh)-GABA}-[Sar]DAL[NMeI]P-NH2; N-terminus assumed)
6. CCCOc1ccc(C(=O)Nc2ccc(S(=O)(=O)N[C@H](CCC(=O)N[C@@H](CCN)C(=O)N[C@@H](CC(C)C)C(=O)N(C)[C@H](C(=O)N3CCC[C@H]3CC(N)=O)[C@@H](C)CC)C(=O)O)cc2)cc1 [Compound 696] ({X8-d(γGlu)}-[Dab]L[NMeI][β3hP]-NH2; N-terminus assumed)

Response given:
1. 9.46
2. 8.33
3. 8.15
4. 9.54
5. 9.38
6. 9.66
